MEASURED TARGET: Neu5Ac(a2-3)Gal(b1-4)[Fuc(a1-3)]GlcNAc(b1-3)Gal(b1-4)[Fuc(a1-3)]GlcNAc(b1-3)Gal(b1-4)[Fuc(a1-3)]GlcNAc
RUN DESCRIPTION: glycan array binding signal (z-score within array); higher = stronger binding
CONDITIONS: glycan notation: IUPAC condensed, linker removed
Many of the other results were omitted from the sample, so the strongest signals are more common in it than they were.
PARAMETER MEASURED: glycan array binding signal (z-score)
Lab note: record the figure alone, no unit after it.

Here are 6 binders together with their reported answers.
FimD (Bordetella pertussis) (protein) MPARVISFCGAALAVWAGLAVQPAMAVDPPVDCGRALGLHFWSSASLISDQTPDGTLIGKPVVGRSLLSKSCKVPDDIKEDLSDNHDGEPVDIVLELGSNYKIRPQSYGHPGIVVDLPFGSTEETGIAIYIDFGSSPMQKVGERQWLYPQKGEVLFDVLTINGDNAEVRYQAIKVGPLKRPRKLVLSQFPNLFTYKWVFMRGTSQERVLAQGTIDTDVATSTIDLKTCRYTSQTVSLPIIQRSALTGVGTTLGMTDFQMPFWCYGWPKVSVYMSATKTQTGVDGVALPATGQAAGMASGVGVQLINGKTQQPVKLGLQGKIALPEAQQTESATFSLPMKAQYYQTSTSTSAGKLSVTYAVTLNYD = -0.135
F17-L (Escherichia coli) (protein) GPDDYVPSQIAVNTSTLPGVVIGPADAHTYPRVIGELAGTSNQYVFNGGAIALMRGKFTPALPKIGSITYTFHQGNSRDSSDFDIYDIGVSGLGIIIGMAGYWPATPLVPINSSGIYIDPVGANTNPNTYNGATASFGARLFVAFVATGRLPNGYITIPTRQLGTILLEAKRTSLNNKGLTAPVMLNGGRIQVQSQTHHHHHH = -0.119
FaeGad (Escherichia coli) (protein) WMTGDFNGSVDIGGSITADDYRQKWEWEVGTGLNGFGSVLNDLTNGGTKLTITVTGNKPILLGRTKEAFATPVTSGVDGIPHIAFTDYEGASVELRNPDGETEKGLTYFVLPMKNAEGTKVGSVKVNASYAGALGRGGVTSADGELMSLFAEGSHAIFYGGLPTNVKNSELKGGSAAAARTELFGSLSKNDILGQIQRVNANITSLVNVPGSFNENMAYTDGSVVSVAYALGIANGQTIEATFNQAVTTSTQWSAPLNVAITYY = -0.187
3FTT (Staphylococcus aureus), Q5HCZ5 (protein) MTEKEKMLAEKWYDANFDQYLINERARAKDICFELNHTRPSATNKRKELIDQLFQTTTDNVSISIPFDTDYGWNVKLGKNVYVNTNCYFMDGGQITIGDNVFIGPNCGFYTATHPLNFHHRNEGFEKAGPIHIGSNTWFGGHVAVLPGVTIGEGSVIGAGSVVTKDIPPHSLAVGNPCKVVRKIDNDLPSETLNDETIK = -0.195
LF82 (Escherichia coli) (protein) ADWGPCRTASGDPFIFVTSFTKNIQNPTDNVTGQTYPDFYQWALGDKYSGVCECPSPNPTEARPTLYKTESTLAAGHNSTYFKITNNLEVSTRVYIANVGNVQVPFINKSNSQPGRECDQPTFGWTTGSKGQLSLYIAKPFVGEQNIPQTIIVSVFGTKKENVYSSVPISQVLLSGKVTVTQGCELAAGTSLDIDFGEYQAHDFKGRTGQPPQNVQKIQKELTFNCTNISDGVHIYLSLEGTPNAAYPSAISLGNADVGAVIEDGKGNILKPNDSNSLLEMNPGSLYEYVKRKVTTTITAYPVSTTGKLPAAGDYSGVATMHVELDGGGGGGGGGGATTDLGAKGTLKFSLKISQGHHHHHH = 0.12
SfaEH (Escherichia coli), Q1RDG5 (protein) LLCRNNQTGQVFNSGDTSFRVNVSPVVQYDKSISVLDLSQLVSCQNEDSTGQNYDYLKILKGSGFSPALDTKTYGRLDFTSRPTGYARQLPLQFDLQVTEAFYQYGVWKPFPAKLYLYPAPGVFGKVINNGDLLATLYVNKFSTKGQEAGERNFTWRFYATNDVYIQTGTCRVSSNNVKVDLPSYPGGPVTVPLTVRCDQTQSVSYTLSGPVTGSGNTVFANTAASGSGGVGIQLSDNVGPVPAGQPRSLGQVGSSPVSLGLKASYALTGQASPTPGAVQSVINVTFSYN = 0.9

Would you mind telling me what glycan array binding signal (z-score) value was observed for F4 (Escherichia coli), A0A6L9DDF0 (protein) MKKTLIALALAASAVSGMAHAWTSGDFNGTVDIGGSIDATNYRQKWEWEVGTGLNGFYNALSELTNNDTKLTITVTGNKPILLGRTKEAFVTPTAGGWGGIPQIAFTDYKGAPVELKNPDGETNKGLAYFVLPMKNADGTEAGSVRVNASYAGAVVEKTSDSSAKLFSAYAGEVIRIFNGGLPVNVTQSELQSGVAAADRTALFGSLGKADLVAQFQAVIPGATVTDGTSSEHCTMRLLASAAYALGIADGQTIEATFNQAVTTSTQWSAPLNVAITYY ?
-0.185

Would you mind telling me what glycan array binding signal (z-score) value was observed for Wzz (Escherichia coli) (protein) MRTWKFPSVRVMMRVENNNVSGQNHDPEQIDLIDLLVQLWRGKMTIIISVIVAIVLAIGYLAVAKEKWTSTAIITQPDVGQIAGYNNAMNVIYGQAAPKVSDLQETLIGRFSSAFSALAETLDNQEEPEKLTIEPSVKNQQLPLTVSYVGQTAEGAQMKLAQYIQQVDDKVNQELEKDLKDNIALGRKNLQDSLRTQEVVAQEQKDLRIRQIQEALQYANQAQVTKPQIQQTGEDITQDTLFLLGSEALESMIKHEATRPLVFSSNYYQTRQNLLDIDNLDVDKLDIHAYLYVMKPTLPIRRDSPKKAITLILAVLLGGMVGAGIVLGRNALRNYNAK ?
-1.71

Would you mind telling me what glycan array binding signal (z-score) value was observed for SJCP1084 (Schistosoma japonicum) (protein) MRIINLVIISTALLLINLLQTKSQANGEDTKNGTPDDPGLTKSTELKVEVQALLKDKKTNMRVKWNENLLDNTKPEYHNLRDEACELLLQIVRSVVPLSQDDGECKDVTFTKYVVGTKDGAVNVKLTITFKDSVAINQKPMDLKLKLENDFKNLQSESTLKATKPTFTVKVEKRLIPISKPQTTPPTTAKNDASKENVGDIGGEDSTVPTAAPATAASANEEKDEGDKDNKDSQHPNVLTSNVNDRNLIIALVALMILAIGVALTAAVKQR ?
0.379

Would you mind telling me what glycan array binding signal (z-score) value was observed for GH98CBM (Clostridium perfringens) (protein) EVYALEESRDVYLSDLDWLNATHGDDTKSKIVQKNHPFTPGNNNQSTKISLKMEDGSISEFEKGLGTIAGSPSTITYDISGAGVTKFFSYLGIDRSANPINEQYAKVDKIEVVVDGKVIYSTINQFPNGLTYETPAIKVDLNIPENAKRLQLKSYAGEKTWGDEVVYADAKFTAKGDFVN ?
-0.233
